Tested on: OVCAR-5 ovarian
Test: NCI tumour cell line growth inhibition, 48 h
Reported TGI values for the following molecules.

Molecule	TGI
Nc1[nH]c(=O)ncc1CO	> 100 µM
CCOC(=O)[C@H]1Nc2ccccc2C2c3ccccc3CC21 (stereo partly drawn)	> 100 µM
O=C(Nc1cccc(-n2cc(-c3ccncc3)c(-c3ccc(O)c(Cl)c3)n2)c1)c1cccc(C(F)(F)F)c1	> 100 µM
C=C(C)[C@@H]1CC[C@]2(C(=O)O)CC[C@]3(C)[C@H](CCC4[C@@]5(C)CC[C@H](C(=O)/C=C/c6ccc(O)c(O)c6)C(C)(C)[C@@H]5CC[C@]43C)[C@@H]12 (stereo partly drawn)	26.7 µM
NC(=O)CO/N=C1/C(c2c(O)[nH]c3ccccc23)=Nc2ccccc21	> 100 µM
S=c1nc(-c2ccnc(-c3nc(=S)[nH][nH]3)c2)[nH][nH]1	> 100 µM
Cc1cc(Cl)cc2c1NC(=O)C2=O (tested in a mixture with another compound)	> 100 µM
CC1(C)OC2C(COS(N)(=O)=O)SC(n3cnc4cncnc43)C2O1 (stereo not drawn)	> 100 µM
COc1cc([N+](=O)[O-])c2ncccc2c1[N+](=O)[O-]	31.1 µM
Cc1ccc(S(=O)(=O)n2cc(C#N)c(C#N)c2)cc1	81.2 µM
CC1CC[C@]2(C(=O)O)CCC3(C)C(=CCC4[C@@]5(C)CC[C@H](OS(=O)(=O)c6ccccc6)C(C)(C)C5CC[C@]43C)[C@@H]2[C@H]1C (stereo partly drawn)	> 100 µM
CCOP(=O)(Nc1ccc2oc(=O)c3ccccc3c2c1)OCC	> 100 µM
CC(=O)/C(=C\c1ccc(Cl)c(Cl)c1)C(=O)C(C)CN(C)C (stereo not drawn)	23.8 µM
CN1CCc2c1nc(-c1ccc([N+](=O)[O-])cc1)c1c2N(C)CC1	> 100 µM
O=C(CC1Sc2ccccc2NC1=O)Nc1ccc(Cl)cc1 (stereo not drawn)	> 100 µM
COC(=O)/C(=N\NC(N)=S)C(C#N)c1ccccc1 (stereo not drawn)	> 100 µM
OCNCCNc1nc2ccccc2c2[nH]c3ccccc3c12	6.75 µM
CC1CCC2N(C1)CC1C3(O)CC45OC6(O)C(O)CCC4(C)C6CCC5C3(O)CC(O)C1(O)C2(C)O (stereo not drawn)	> 100 µM
CO[C@]1(CN2CCN3CCCC[C@@H]3C2)/C=C/C[C@H](C)[C@@H](C)S(=O)(=O)NC(=O)c2ccc3c(c2)N(C[C@@H]2CC[C@H]21)C[C@@]1(CCCc2cc(Cl)ccc21)CO3	3.8 µM
c1ccc(-c2nnn(CCN3CCCCC3)n2)cc1	> 100 µM
CCCCCCCCCCCCCCCCOC(=O)c1cc(O)cc(C(=O)OCCCCCCCCCCCCCCCC)c1	> 100 µM
CC(=O)Nc1cc(Nc2cc(=O)[nH]c(=O)[nH]2)ccc1C	> 100 µM
COC(=O)CCCC(=O)NC1=C(NCc2ccccc2)C(=O)c2ccccc2C1=O	> 100 µM
O=C1CC(n2cccc2)c2c(Br)sc(Br)c21 (stereo not drawn)	32.5 µM
O=C(NNCc1ccc(Cl)cc1)Nc1cccc2ccccc12	> 100 µM
CCOC(=O)c1cn(C)c(=S)n2c1nc1ccccc12	> 100 µM
CCCCCCCCCCCCCc1nn[nH]n1	33 µM
N#Cc1nc(C#N)n(C(=O)c2ccccc2)c1NC(=O)c1ccccc1	> 100 µM
